Task for the reader: assign each of the following compounds its reported melting point.

For orientation, consider the following solved cases.
{"columns": ["test_smiles", "readout_value"],
 "data": [
  ["Cn1nnc2c([se]c3ccccc32)c1=O", "190 to 192 °C"],
  ["CN(C)/N=N/c1cc(C(C)(C)C)[se]c1C(=O)O", "120 to 122 °C"],
  ["CN(C)/N=N/c1c(C(N)=O)[se]c2c1CCCC2", "198 to 202 °C"]
]}

Give measured melting point for every item shown.
1. Cn1nnc2cc(C(C)(C)C)[se]c2c1=O
2. CN(C)/N=N/c1cc(-c2ccccc2)[se]c1C(=O)O

Output line:
1. 98 to 100 °C
2. 212 to 214 °C

* * *

measurement_name: melting point

{"columns": ["test_smiles", "measurement_name", "readout_value"],
 "data": [
  ["Cn1nnc2c([se]c3ncccc32)c1=O", "melting point", "202 to 204 °C"],
  ["CN(C)/N=N/c1c(C(=O)O)[se]c2c1CCCC2", "melting point", "100 to 102 °C"],
  ["CN(C)/N=N/c1cc(-c2ccccc2)[se]c1C(N)=O", "melting point", "222 to 224 °C"]
]}

Give measured melting point for every item shown.
1. CN(C)/N=N/c1c(C(=O)O)[se]c2ncccc12
2. Cn1nnc2cc(-c3ccccc3)[se]c2c1=O
3. CN(C)/N=N/c1cc(C(C)(C)C)[se]c1C(N)=O
4. CN(C)/N=N/c1cc(C(N)=O)[se]c1C(N)=O
5. Cc1[se]c(C(N)=O)cc1/N=N/N(C)C
6. CN(C)/N=N/c1cc(C(C)(C)C)[se]c1C#N
7. CN(C)/N=N/c1c(C(N)=O)[se]c2ncccc12

Output line:
["172 to 174 °C", "232 to 234 °C", "218 to 220 °C", "266 to 268 °C", "170 to 172 °C", "58 to 60 °C", "230 to 232 °C"]
